Molecular target: Phosphatidylinositol 4-kinase type 2-alpha (Homo sapiens) (UniProt Q9BTU6)
Sequence (Q9BTU6 whole entry, looked up): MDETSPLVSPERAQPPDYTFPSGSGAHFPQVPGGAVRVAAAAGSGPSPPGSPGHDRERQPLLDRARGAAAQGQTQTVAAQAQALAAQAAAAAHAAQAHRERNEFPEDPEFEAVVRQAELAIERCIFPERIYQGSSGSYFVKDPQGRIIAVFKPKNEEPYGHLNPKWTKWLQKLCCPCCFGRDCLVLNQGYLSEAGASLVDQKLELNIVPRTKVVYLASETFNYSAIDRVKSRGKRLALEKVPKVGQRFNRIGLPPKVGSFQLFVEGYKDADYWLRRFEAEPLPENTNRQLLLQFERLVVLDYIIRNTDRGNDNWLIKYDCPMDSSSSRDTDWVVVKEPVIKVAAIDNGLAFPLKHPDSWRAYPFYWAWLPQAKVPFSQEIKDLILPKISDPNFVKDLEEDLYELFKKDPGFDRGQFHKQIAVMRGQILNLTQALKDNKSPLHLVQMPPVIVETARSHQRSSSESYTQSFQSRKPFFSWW
Experiment: qHTS for small molecular inhibitors of PI4K2A
Conditions: purified PI4K2A, ADP-Glo luminescence, 1 h; at 76.9 µM
Screen size: about 420,000 compounds; about 540 (0.13%) were called active. No stated cut-off is given here; in the data, active means activity change below about -50%; inconclusive means mostly about -30% to -49%; inactive means weaker than that. Shown is part of a subset that was picked to be rich in actives.
Give your call using only these classes: y = active, n = inactive

IN: Test call for this molecule, please: CCCCOCCOC(=O)c1cccnc1
OUT: n

====

Biological target: Phosphatidylinositol 4-kinase type 2-alpha (Homo sapiens)
Assay: qHTS for small molecular inhibitors of PI4K2A
Conditions: purified PI4K2A, ADP-Glo luminescence, 1 h; at 76.9 µM
The whole screen tested about 420,000 compounds, of which about 540 (0.13%) were called active. Rule as the data show it: active = activity change below about -50%; inconclusive = mostly about -30% to -49%; inactive = weaker than that. What follows is part of a selection rich in actives, with near analogues and random picks from the rest.
Allowed answers: active, inactive

COc1ccc(C(=O)Nc2ccccc2C(=O)N/N=C/c2ccc(O)c(OC)c2)cc1 | active
CC1=C(C(=O)OCC(C)C)C(c2ccc(OCc3ccccc3)cc2)N2C(=O)CCSC2=N1 (stereo unspecified) | inactive
Cc1oc2ncnc(N3CCOCC3)c2c1C(=O)NCCc1ccccc1 | inactive
CN(C)c1cc2c(Nc3ccc4c(cnn4Cc4ccccc4)c3)ncnc2cn1 | inactive
COC(=O)c1cc(Cl)c(NC(C)=O)cc1OC | inactive

Next compound, please.
IN: Could you check what this test reported for COC(=O)CN1C(=O)CSc2ccc(S(=O)(=O)Nc3cc(C)ccc3C)cc21 ?
OUT: inactive
